# credit: patent US7462636B2

- test details: Oral availability in the rat (serum concentration, LC-MS)
- Format: in vivo
- applied conditions: both sexes, ip, 10 mg/kg, intraperitoneal, DMSO formulation, 30 min following administration, read-out: intraperitoneal absorption (serum concentration)
attribute measured: concentration at 30 min (ng/mL)
Provide the reading as a plain figure in ng/mL.

Request: Give the measured concentration at 30 min of CC(C)CN(C[C@@H](O)[C@H](Cc1ccccc1)NC(=O)O[C@H]1CO[C@H]2OCC[C@H]21)S(=O)(=O)c1ccc2onc(N)c2c1 .
Response: 2080

====

- test details: Oral availability in the rat (serum concentration, LC-MS)
- Format: in vivo
- applied conditions: both sexes, po, 10 mg/kg, oral, PEG formulation, read-out: serum concentration
attribute measured: concentration at 30 min (ng/mL)
Provide the reading as a plain figure in ng/mL.

Request: Give the measured concentration at 30 min of CC(C)CN(C[C@@H](O)[C@H](Cc1ccccc1)NC(=O)O[C@H]1CO[C@H]2OCC[C@H]21)S(=O)(=O)c1ccc2onc(N)c2c1 [Compound 1] .
Response: 22.2
